Entries and their measured growth follow.
Test system: DU-145 prostate
Experiment: NCI-60 one-dose screen, 48 h (100 = growth as untreated, 0 = no growth, -100 = all killed)
Settings: 10 µM unless noted
About 83,000 compounds went through this panel and 20% of them were active in at least one assay; those are over-represented in the sample as a whole.
Express it in %; write the number only.

# example entries with known answers
- compound: "COc1ccc(-c2ccc(NNC(=O)c3ccc(F)cc3)nn2)cc1OC"
  result-unit: "%"
  growth: 65.6
- compound: "CCCCC1COc2cccc3c2N1C=C/C3=C\\C(=O)n1ccc2ccccc21 (centres undefined)"
  result-unit: "%"
  growth: 99.1
- compound: "C[C@@H]1C[C@H]2C(=O)O[C@@H](C)[C@H](NC(=O)[C@H](Cc3cc(F)cc(F)c3)NC(=O)Nc3ccc(Cl)cc3F)C(=O)N3C[C@H](O)C[C@H]3C(=O)N3CCN(C)C[C@H]3C(=O)N[C@@H](C)C(=O)N2C1"
  result-unit: "%"
  growth: 41.3
- compound: "Cc1cc(C)c(O)c(CNCCCNCc2cc(C)cc(C)c2O)c1"
  result-unit: "%"
  growth: 87.8
- compound: "O=C1COCCN1c1ccc(Nc2nc(Cl)nc(N3CCOCC3)n2)cc1"
  result-unit: "%"
  growth: 102

Find the measured growth of c1nc(N2CCOCC2)c2[nH]ccc2n1 and report it.
106

From: PubChem BioAssay (NCI)
